System: Escherichia coli TOP10
Test: shrunken log2 fold change of peptide-encoding DNA abundance (4.5 h post-induction vs induction); higher = less antimicrobial activity (less host growth inhibition)
Conditions: time post-induction: 4.5 h; library: site-saturation at positions 5, 18, 19, 20
shrunken log2 fold change vs -0.3: at or above is YES, below is NO.

For orientation, consider the following solved cases.
INSERT INTO measurements (sequence_data, classification) VALUES
  ('RRIRFRPPRLPRPRPRPRITPRP', 'NO'),
  ('RRIRYRPPRLPRPRPRPAVLPRP', 'YES'),
  ('RRIRPRPPRLPRPRPRPREAPRP', 'YES'),
  ('RRIRLRPPRLPRPRPRPFLCPRP', 'NO'),
  ('RRIRCRPPRLPRPRPRPSAEPRP', 'YES');

Is reported shrunken log2 fold change greater than or equal to -0.3 here: RRIRIRPPRLPRPRPRPLTSPRP YES

Is reported shrunken log2 fold change greater than or equal to -0.3 here: RRIRPRPPRLPRPRPRPDSTPRP NO

Is reported shrunken log2 fold change greater than or equal to -0.3 here: RRIRLRPPRLPRPRPRPMRYPRP YES

Is reported shrunken log2 fold change greater than or equal to -0.3 here: RRIRIRPPRLPRPRPRPKGNPRP NO

Is reported shrunken log2 fold change greater than or equal to -0.3 here: RRIRPRPPRLPRPRPRPLISPRP YES

Is reported shrunken log2 fold change greater than or equal to -0.3 here: RRIRFRPPRLPRPRPRPHYHPRP NO

Is reported shrunken log2 fold change greater than or equal to -0.3 here: RRIRERPPRLPRPRPRPARRPRP YES

Is reported shrunken log2 fold change greater than or equal to -0.3 here: RRIRERPPRLPRPRPRPNRWPRP YES

###

System: Escherichia coli TOP10
Experiment: shrunken log2 fold change of peptide-encoding DNA abundance (4.5 h post-induction vs induction); higher = less antimicrobial activity (less host growth inhibition)
Conditions: time post-induction: 4.5 h; library: site-saturation at positions 5, 18, 19, 20
PARAMETER: shrunken log2 fold change
Numbers only.

INSERT INTO results (sequence_data, target_or_test_system, test_result) VALUES
  ('RRIRQRPPRLPRPRPRPVKTPRP', 'Escherichia coli TOP10', 0.139),
  ('RRIRFRPPRLPRPRPRPFAFPRP', 'Escherichia coli TOP10', -0.239),
  ('RRIRPRPPRLPRPRPRPWNPPRP', 'Escherichia coli TOP10', -0.496),
  ('RRIRRRPPRLPRPRPRPVLWPRP', 'Escherichia coli TOP10', 0.886);

Could I get shrunken log2 fold change for every one of these entries?
1. RRIRVRPPRLPRPRPRPEEKPRP
2. RRIRSRPPRLPRPRPRPHWTPRP
3. RRIRMRPPRLPRPRPRPLWIPRP
4. RRIRQRPPRLPRPRPRPTDWPRP
5. RRIRIRPPRLPRPRPRPFEHPRP
6. RRIRTRPPRLPRPRPRPDGKPRP

1: -0.0261; 2: -0.0566; 3: -0.00647; 4: 0.0907; 5: -0.321; 6: -0.41

Could I get shrunken log2 fold change for every one of these entries?
1. RRIRRRPPRLPRPRPRPQGSPRP
2. RRIRHRPPRLPRPRPRPNFLPRP

0.0234
-0.322

Could I get shrunken log2 fold change for every one of these entries?
1. RRIRTRPPRLPRPRPRPGGSPRP
2. RRIRHRPPRLPRPRPRPNTWPRP
3. RRIRDRPPRLPRPRPRPYMWPRP
4. RRIRRRPPRLPRPRPRPCEWPRP
5. RRIRHRPPRLPRPRPRPMPQPRP

0.135
-0.0528
0.0589
-0.0585
0.235

Could I get shrunken log2 fold change for every one of these entries?
1. RRIRSRPPRLPRPRPRPSSYPRP
2. RRIRERPPRLPRPRPRPRTEPRP
3. RRIRCRPPRLPRPRPRPGWEPRP

[-0.344, -0.0166, 0.253]

###

What shrunken log2 fold change was measured for each of the following?
Tested on: Escherichia coli TOP10
Experiment: shrunken log2 fold change of peptide-encoding DNA abundance (4.5 h post-induction vs induction); higher = less antimicrobial activity (less host growth inhibition)
Conditions: time post-induction: 4.5 h; library: site-saturation at positions 5, 18, 19, 20
Numbers only.

INSERT INTO assay_data (sequence_data, target_or_test_system, test_result) VALUES
  ('RRIRDRPPRLPRPRPRPIGGPRP', 'Escherichia coli TOP10', 0.0266),
  ('RRIRMRPPRLPRPRPRPRDIPRP', 'Escherichia coli TOP10', -0.0288),
  ('RRIRPRPPRLPRPRPRPEKWPRP', 'Escherichia coli TOP10', 0.0413),
  ('RRIRPRPPRLPRPRPRPAADPRP', 'Escherichia coli TOP10', 0.282),
  ('RRIRQRPPRLPRPRPRPGRHPRP', 'Escherichia coli TOP10', 0.0349);

Could I get shrunken log2 fold change for every one of these entries?
1. RRIRRRPPRLPRPRPRPSRFPRP
2. RRIRVRPPRLPRPRPRPCWPPRP
3. RRIRPRPPRLPRPRPRPVWKPRP
4. RRIRHRPPRLPRPRPRPMPNPRP
5. RRIRQRPPRLPRPRPRPVQTPRP

1. 0.536
2. 0.237
3. 0.218
4. -0.0341
5. -0.0915

Could I get shrunken log2 fold change for every one of these entries?
1. RRIRTRPPRLPRPRPRPKADPRP
2. RRIRVRPPRLPRPRPRPSVEPRP
3. RRIRKRPPRLPRPRPRPGSAPRP
4. RRIRLRPPRLPRPRPRPTWEPRP
5. RRIRRRPPRLPRPRPRPSADPRP

1: -0.0127; 2: -0.0446; 3: 0.843; 4: 0.0313; 5: 0.247

Could I get shrunken log2 fold change for every one of these entries?
1. RRIRQRPPRLPRPRPRPDQCPRP
2. RRIRRRPPRLPRPRPRPASRPRP
3. RRIRGRPPRLPRPRPRPNVLPRP
4. RRIRSRPPRLPRPRPRPVKSPRP
5. RRIRPRPPRLPRPRPRPNNKPRP
6. RRIRNRPPRLPRPRPRPAICPRP
7. RRIRPRPPRLPRPRPRPYTFPRP
8. RRIRSRPPRLPRPRPRPNSGPRP

1: -0.0972; 2: 0.202; 3: -0.0548; 4: -0.127; 5: -0.542; 6: -0.0274; 7: -0.504; 8: 0.0845

###

System: Escherichia coli TOP10
Test: shrunken log2 fold change of peptide-encoding DNA abundance (4.5 h post-induction vs induction); higher = less antimicrobial activity (less host growth inhibition)
Details: time post-induction: 4.5 h; library: site-saturation at positions 5, 18, 19, 20
PARAMETER: shrunken log2 fold change

Answered cases to consult:
INSERT INTO measurements (sequence_data, parameter, test_result) VALUES
  ('RRIRRRPPRLPRPRPRPKPCPRP', 'shrunken log2 fold change', 0.126),
  ('RRIRWRPPRLPRPRPRPHQKPRP', 'shrunken log2 fold change', 0.0146),
  ('RRIRQRPPRLPRPRPRPYFQPRP', 'shrunken log2 fold change', -0.428);

Could I get shrunken log2 fold change for every one of these entries?
1. RRIRDRPPRLPRPRPRPCMGPRP
2. RRIRSRPPRLPRPRPRPKDKPRP
3. RRIRVRPPRLPRPRPRPVATPRP

1. -0.0733
2. -0.117
3. 0.212

###

Test system: Escherichia coli TOP10;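 further: peptides expressed intracellularly from a pBAD plasmid library in pooled LB shake-flask culture, induced with 0.3% L-arabinose, DNA abundance read by NGS, three biological replicates, DESeq2 with apeglm shrinkage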
Test: shrunken log2 fold change of peptide-encoding DNA abundance (4.5 h post-induction vs induction); higher = less antimicrobial activity (less host growth inhibition)
Settings: time post-induction: 4.5 h; library: site-saturation at positions 5, 18, 19, 20
PARAMETER: shrunken log2 fold change
One number for each entry.

Answered cases to consult:
INSERT INTO results (sequence_data, target_or_test_system, test_result) VALUES
  ('RRIRERPPRLPRPRPRPCYDPRP', 'Escherichia coli TOP10', -1.93),
  ('RRIRLRPPRLPRPRPRPAYHPRP', 'Escherichia coli TOP10', -0.249),
  ('RRIRMRPPRLPRPRPRPGSGPRP', 'Escherichia coli TOP10', 1.34),
  ('RRIRLRPPRLPRPRPRPEIAPRP', 'Escherichia coli TOP10', 0.167),
  ('RRIRHRPPRLPRPRPRPLQFPRP', 'Escherichia coli TOP10', -0.28);

Could I get shrunken log2 fold change for every one of these entries?
1. RRIRSRPPRLPRPRPRPKGEPRP
2. RRIRGRPPRLPRPRPRPSMTPRP
3. RRIRTRPPRLPRPRPRPNSYPRP
4. RRIRHRPPRLPRPRPRPIYAPRP
5. RRIRIRPPRLPRPRPRPDFPPRP

1: 0.379; 2: 2.35; 3: -0.188; 4: 0.0179; 5: 0.058

Could I get shrunken log2 fold change for every one of these entries?
1. RRIRVRPPRLPRPRPRPWHKPRP
2. RRIRSRPPRLPRPRPRPWEGPRP
3. RRIRKRPPRLPRPRPRPIGQPRP
4. RRIRSRPPRLPRPRPRPTSTPRP
5. RRIRHRPPRLPRPRPRPNKWPRP

[-0.127, -0.0466, 0.0684, -0.236, -0.0964]
